- studyTarget: T1, BORIS-N_(1-258) expressed and purified from HEK293 cells (human, UniProt Q8NI51 1-258)
- T1 construct: source: HEK293 cells, expressed and purified
- T1 sequence (looked up): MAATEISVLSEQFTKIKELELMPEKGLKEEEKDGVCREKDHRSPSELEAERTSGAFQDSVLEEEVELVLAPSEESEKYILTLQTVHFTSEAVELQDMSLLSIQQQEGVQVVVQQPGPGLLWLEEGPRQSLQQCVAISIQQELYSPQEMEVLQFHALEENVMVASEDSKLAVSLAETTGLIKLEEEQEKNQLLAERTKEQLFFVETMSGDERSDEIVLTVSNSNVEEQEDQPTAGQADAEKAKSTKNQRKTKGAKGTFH
- experimentNotes: BLI; ForteBio OctetRed; biotin-labeled peptide 9 loaded onto an SA sensor (10 nM in loading), dilution series of BORIS-N_(1-258) in PBS with 0.02% Tween 20
- conditionContext: both partners purified
Where no end group is shown, it is not given here.
endpointName: Kd (nM)
Answers are plain numbers, in nM.

(Q) Using the record for VHWDFRQWWQPS (also: biotin (position not given here), 12-mer selected from the Ph.D.-12 phage display peptide library; also called BTApep-biotin; biotinylated peptide 9; source: synthetic peptide (China Peptides Co., Ltd.)) [Peptide 9 labeled with biotin] , report its Kd.
(A) 6.37
